# experiment-summary: PAMPA-BBB assay (brain permeability)
# Type: in vitro ADME, porcine
# conditions: predictive penetration in the CNS from PAMPA-BBB Pe
outcome-measure: CNS Prediction

Sample records with CNS Prediction:
smiles-code | outcome-measure | result-value
Cc1ccc(-n2c[n+](CC(=O)[O-])c(Cc3ccccc3)c2-c2ccccc2)cc1 | CNS Prediction | CNS-
COc1ccc(-n2c[n+](C(C)(C)C)c(Cc3ccc(C)cc3)c2-c2ccc(Cl)cc2)cc1 | CNS Prediction | CNS+/-
Cc1ccc(-n2c[n+](C(C)(C)C)c(Cc3ccccc3)c2-c2ccccc2)cc1 | CNS Prediction | CNS+/-
Cc1ccc(-n2c[n+](-c3ccc4ccccc4c3)c(Cc3ccccc3)c2-c2ccc(Cl)cc2)cc1 | CNS Prediction | CNS+/-

Quick one: CNS Prediction of COc1ccc(-n2c[n+](-c3ccc(OC)cc3)c(Cc3ccccc3)c2-c2ccc(C)cc2)cc1 ?
CNS+/-

====

Documented EC50 across a set of molecules
# Tested on: L6 rat myoblast cells
# experiment-summary: Cytotoxic activity against rat skeletal myoblast L6 cells
# Type: cell-based
# conditions: 144 h; cytotoxicity, L6 rat myoblasts, 6 days
Reply numerically in µM, unit not repeated.

smiles-code | EC50 [µM]
Cc1ccc(-n2c[n+](C(C)(C)C)c(Cc3ccccc3)c2-c2ccccc2)cc1 | 33.9

Could you tell me which EC50 is on file for COc1ccc(-n2c[n+](C(C)(C)C)c(Cc3ccc(C)cc3)c2-c2ccc(Cl)cc2)cc1 ?
9.69

Endpoint output: EC50 of Cc1ccc(-n2c[n+](-c3ccc4ccccc4c3)c(Cc3ccccc3)c2-c2ccc(Cl)cc2)cc1 . Value?
4.09

Consider the molecule COc1ccc(-n2c[n+](-c3ccc(OC)cc3)c(Cc3ccccc3)c2-c2ccc(C)cc2)cc1 and give its measured EC50.
4.6

====

// Papp lookup, one value per entry
# experiment-summary: PAMPA-BBB assay (brain permeability)
# Assay type: in vitro ADME, porcine
# conditions: pig, PAMPA; PBS:EtOH 70:30; n=3 ± S.D. in Table S5; read-out: PAMPA-BBB permeability (Pe), experimental value
Please state the figure in ×10⁻⁶ cm/s; there is no need to write the unit.

What does the data say about its Papp? Entry: Cc1ccc(-n2c[n+](CC(=O)[O-])c(Cc3ccccc3)c2-c2ccccc2)cc1
1.6

Quick one: Papp of Cc1ccc(-n2c[n+](C(C)(C)C)c(Cc3ccccc3)c2-c2ccccc2)cc1 ?
4.2

Which Papp is listed for CN1C(C(=O)Nc2ccccn2)=C(O)c2ccccc2S1(=O)=O [Piroxicam, reference compound] ?
1.7

What value of Papp has been recorded for this entry: COc1ccc(-n2c[n+](-c3ccc(OC)cc3)c(Cc3ccccc3)c2-c2ccc(C)cc2)cc1
4.9

So what's the measured Papp for this one? Cc1ccc(-n2c[n+](-c3ccc4ccccc4c3)c(Cc3ccccc3)c2-c2ccc(Cl)cc2)cc1
2.4

What does the record list as Papp for COc1ccc(-n2c[n+](C(C)(C)C)c(Cc3ccc(C)cc3)c2-c2ccc(Cl)cc2)cc1 ?
2.6
